- System: MS2 coat protein
- assay-info: apparent KD of MS2 coat protein; designed switch direction (-1 OFF switch, 1 ON switch): -1; higher = weaker reporter binding
- measurement-parameters: input ligand: FMN 200 uM
Response field class: enum, chosen by comparing apparent KD of MS2 coat protein against one: < 30 nM; two: ≥ 30 nM and < 200 nM; three: ≥ 200 nM

# primary-sequence, group-label
measured = [
    ("GAUAUGUAAGGAUAUCGUGCAAGUUUCAAAAGAGGCUUGUGCGAGAAGGUACAUGAGGAUCACCCAUGUAGGUU [Omei Ex4 B14] (Eterna round: R97, puzzle: Exclusion 4)", "two"),
    ("UUAAAUCAUGUAGGAUAUGCGUGGCGAAGCUAUGCAGAAGGACAUGAGGAUCACCCAUGUGCUUCCGUCUGAGUACAGACGGUA [Mat - Exclusion NG 1 - Mod of JL - D11] (Eterna round: R96, puzzle: Exclusion NG 1)", "three"),
    ("AAGUAGACAGUGAGGAUAUAGGUGGAAUGACCCAUUUAGAAGGUACAUGAGGAUCACCCAUGUGGGUAAUGUCG [Brourd's EX4 #27] (Eterna round: R97, puzzle: Brourd's mod of Exclusion 4)", "two"),
]

Band assignment needed for CUAUCCAGAGGAUAUACGAGAUCGAAAGAUCGGCGAUCCCUACAUGAGGAUCACCCAUGUAGAAGGCUGGAUAG [Mod 17 - Jieux - Exclusion 2] (Eterna round: R97, puzzle: Exclusion 2) please. two

Band assignment needed for UGUUGUCGCGCAGGAUAUGAGGAUCACCCAUAUAGAGGAUAUGAAAAGAAGGCUCUGAGGAUUACCCAGAAGGGCGGGACAACU [pwkr exNG2 2xF5 2xFMN.21] (Eterna round: R96, puzzle: Exclusion NG 2) please. three

Band assignment needed for UUCAUGUUAGGAUAUUCCGCUGCAGAGAAAGAGUGCAGAAUGAAGAAGGGACAUGAGGAUCACCCAUGUUCCAA [EX4 A.8] (Eterna round: R97, puzzle: Exclusion 4) please. one

Band assignment needed for GGUGUGGCAGGAUAUACAUCGAAGGGUGCAAAGGGCUCGGCACAUGAGGAUCACCCAUGUAGAAGGGCCUACCA [Beated] (Eterna round: R96, puzzle: Exclusion 2) please. one

Band assignment needed for UUAAAUCAUGUAGGAUAUGCGUGGAGAAACUAUGCAGAAGGACAUGAGGAUCACCCAUGUGCUUCCGUCUGAGAACAGACGGUA [Mat - Exclusion NG 1 - Mod of JL - D14] (Eterna round: R96, puzzle: Exclusion NG 1) please. three

* * *

- Tested on: MS2 coat protein
- assay-info: apparent KD of MS2 coat protein; designed switch direction (-1 OFF switch, 1 ON switch): -1; higher = weaker reporter binding
- measurement-parameters: input ligand: none
Reported apparent KD of MS2 coat protein by item:
Numbers only; they are read as nM.

Reference set, count: 3
# primary-sequence, numeric-result
data = [
    ("AGGUGUAGAGGAUAUCGACUUUCUCACAUGAGGAUCACCCAUGUCCUGGUCACCCAGGACCGAGAAGGCUACACCA [Omei Ex5 D27] (Eterna round: R97, puzzle: Exclusion 5)", 27.6),
    ("UCUCGAUGGCAAGGAUAUCCUACAUUGUUCUGGCCCGGGCAUGCUACAUGAGGAUCACCCAUGUGGGAGAAGGUGCGCCACUGC [Design 26] (Eterna round: R96, puzzle: Exclusion NG 2)", 93.3),
    ("UGACACACCUGAGGAUAUUCUGAACGUUUCCCAGAAGAAGGUAGGUACAGCGGGAGCGCCACAUGAGGAUCACCCAUGUCUACC [Eternabot solution 46] (Eterna round: R96, puzzle: Exclusion NG 1)", 142),
]

Below: the item to evaluate.
Per the reported MS2 coat protein data, UUCCCGCGCGUGAGGAUAUGCUGAUCCCAGGAUUAGCAGAAGGCACAUGAGGAUCACCCAUGUCCAACUUGUCU [LRO-BmodExc4-14- Bluer = mod of Colors by Tatyana Zabanova] (Eterna round: R97, puzzle: Brourd's mod of Exclusion 4) has apparent KD of MS2 coat protein of 31.6

Data origin, for the record: the supplement of paper PMC9170038
